Test system: Plasmodium falciparum
Assay: GSK_TCMDC: Inhibition of Plasmodium falciparum 3D7 in whole red blood cells, using parasite LDH activity as an index of growth. Test compounds present at 2uM
Type: functional
PROPERTY_MEASURED: Inhibition

Reference set, count: 5
MOLECULE	TARGET_DESC	Inhibition
O=C(NCCc1ccc(O)cc1)n1c2ccccc2c2ccccc21	Plasmodium falciparum	83%
CCCCOc1cc(CNCCCCCCNCc2cc(OCCCC)cc3ccccc23)c2ccccc2c1.CS(=O)(=O)O	Plasmodium falciparum	100%
Cn1nccc1C(=O)NCCNCc1cccc(-c2ccc(-c3nc4ccccc4[nH]3)s2)c1.O=C(O)C(F)(F)F	Plasmodium falciparum	100%
O=C(Nc1ccc(N2CCC(Nc3ccccn3)CC2)cc1)c1cnc(Cl)c(Cl)c1.O=C(O)C(F)(F)F	Plasmodium falciparum	83%
Cc1ccc(C2CCN(CCCCNC(=O)c3ccc(-c4ccc(C(F)(F)F)cc4)cc3)CC2)c(O)c1	Plasmodium falciparum	100%

Please supply Inhibition for each of the following items, keeping them in order.
1. O=[N+]([O-])c1cc(/C=N/Nc2nc3ccccc3[nH]2)ccc1O
2. Cc1ccc2nc(C)cc(N/N=C/c3cccc([N+](=O)[O-])c3)c2c1
3. Cc1nc2ccc3ccc(CNc4ccc5c(c4)CN([C@H](CCC(=O)O)C(=O)O)C5=O)cc3c2c(=O)[nH]1
4. Oc1ccc(-c2ccccc2)cc1CN1CCCCC1
5. Cc1ccc(Nc2ccnc(Nc3ccc(F)c(Cl)c3)n2)cc1O.Cl
6. Cc1ccc(CNC(=O)[C@H](CC(C)C)Nc2cc(C)nc(Nc3ccccc3)n2)cc1.O=C(O)C(F)(F)F

Response:
["98%", "100%", "87%", "93%", "100%", "97%"]

Please supply Inhibition for each of the following items, keeping them in order.
1. Cc1ccc(NC(=O)c2ccc(N3CCC(c4ccccc4C)CC3)nc2)cc1.O=C(O)C(F)(F)F
2. CCOc1ccc(-c2nonc2NC(=O)CC(C)C)cc1OCC
3. CCOc1cc(C(=O)N[C@@H](Cc2ccccc2)[C@H](O)CNCc2cccc(OC)c2)cc(N2CCCCS2(=O)=O)c1.Cl
4. CNC(=O)/C=C/c1cc(NC(=O)Nc2ccnc3c(Br)cccc23)ccc1OC
5. CCCCCN1CCCC(NS(=O)(=O)c2ccc(C(=O)Nc3ccc(C(F)(F)F)cc3)cc2)C1.O=C(O)C(F)(F)F (centres undefined)

Response:
1: 83%; 2: 92%; 3: 97%; 4: 95%; 5: 98%

Please supply Inhibition for each of the following items, keeping them in order.
1. COc1ccc2ncc(F)c(CCN3CCC(NCc4cc(F)c5c(c4)OCCO5)CC3)c2n1.Cl
2. O=C(Nc1cccc(-c2csc(NC(=O)c3ccc4ccccc4c3)n2)c1)c1ccc2ccccc2c1

Response:
["100%", "89%"]

----------
Test system: Plasmodium falciparum
Test: GSK_TCMDC: Inhibition of Plasmodium falciparum Dd2 in whole red blood cells, using parasite LDH activity as an index of growth. Test compounds present at 2uM
Format: functional
PROPERTY_MEASURED: Inhibition

Reference set, count: 3
COMPOUND	Inhibition
Cc1cc(N[C@@H](CC(C)C)C(=O)NCc2cccs2)nc(NCCc2ccc(F)cc2)n1.O=C(O)C(F)(F)F	59%
CC(C)n1cc(CN2CCCC(C(=O)Nc3cccc(-c4cc5ccccc5[nH]4)c3)C2)cn1 (centres undefined)	65%
Cc1cc(=NN=Cc2ccc(F)cc2)c2ccc(F)cc2[nH]1	30%

Please supply Inhibition for each of the following items, keeping them in order.
1. Cc1cc(O)c(CN(C)Cc2ccc3c(c2)OCCO3)cc1C(C)C
2. Cn1cccc1C(=O)C(=O)Nc1cccc(-c2ccc(-c3nc4cc(C(F)(F)F)ccc4[nH]3)cc2)c1
3. CC1CN(C(=O)c2sc3ccccc3c2Cl)CC(C)O1 (centres undefined)
4. CCCN(CCCCNC(=O)c1ccc(-c2cccnc2)cc1)C1CCc2c(O)cccc2C1.Cl (centres undefined)
5. COc1ccc(NC(=O)[C@H](Cc2ccccc2)Nc2cc(C)nc(NCCc3cccs3)n2)cc1.O=C(O)C(F)(F)F

Response:
1. 47%
2. 27%
3. 98%
4. 16%
5. 83%

Query: Report Inhibition, nothing else, for this compound: `CN1CCC(N2CCN(Cc3cccc(-c4ccc(-c5nc6cc(C(F)(F)F)ccc6[nH]5)cc4)c3)CC2)CC1.O=C(O)C(F)(F)F`
Response: 91%

Entry source: ChEMBL document CHEMBL1157539
